System: murine red blood cells (mRBCs)
Conditions: mouse, 60 min, 3.9 μg/mL
Procedure: Thus, the hemolytic activity for these bishydrazones was investigated against murine red blood cells (mRBCs). Murine red blood cells (mRBCs) were prepared by suspending 1 mL of murine blood in 3 mL of PBS prior to centrifugation at 1,000 rpm for 5 min. […] The percentage of hemolysis was calculated using the following equation: % hemolysis=[(absorbance of sample)−(absorbance of blank)]×100/(absorbance of positive control).
Below: a set of entries, each annotated with reported Percentage of hemolysis (±SDEV).
Use % as the unit, but write only the number.

1) C(=N\Nc1ccccc1)/c1ccc(-c2cccc(/C=N/Nc3ccccc3)c2)cc1 [Compound 7a]
1.5

Per the record, Fc1ccc(N/N=C/c2ccc(-c3cccc(/C=N/Nc4ccc(F)cc4)c3)cc2)cc1 [Compound 17a] has Percentage of hemolysis (±SDEV) of 4.3

Per the record, COc1ccc(N/N=C/c2ccc(-c3ccc(/C=N/Nc4ccc(OC)cc4)cc3)cc2)cc1 [Compound 15b] has Percentage of hemolysis (±SDEV) of 2.8

Per the record, C(=N\Nc1ccccc1)/c1ccc(-c2ccc(/C=N/Nc3ccccc3)cc2)cc1 [Compound 7b] has Percentage of hemolysis (±SDEV) of 3.4

Per the record, C[C@@H](c1ncncc1F)[C@](O)(Cn1cncn1)c1ccc(F)cc1F [VOR, voriconazole, reference compound] has Percentage of hemolysis (±SDEV) of 7.5

Per the record, N=C(N)N/N=C/c1ccc(-c2cccc(/C=N/NC(=N)N)c2)cc1 [Compound 24a] has Percentage of hemolysis (±SDEV) of 1.2

Per the record, Fc1ccc(N/N=C/c2ccc(-c3cccc(/C=N/Nc4ccc(F)cc4F)c3)cc2)c(F)c1 [Compound 20a] has Percentage of hemolysis (±SDEV) of 4.2

Per the record, COc1ccc(N/N=C/c2ccc(-c3cccc(/C=N/Nc4ccc(OC)cc4)c3)cc2)cc1 [Compound 15a] has Percentage of hemolysis (±SDEV) of 3.0

Per the record, C/C(=N\Nc1ccc(F)cc1)c1ccc(-c2ccc(/C(C)=N/Nc3ccc(F)cc3)cc2)cc1 [Compound 17c] has Percentage of hemolysis (±SDEV) of 2.6

Per the record, Fc1cccc(N/N=C/c2ccc(-c3cccc(/C=N/Nc4cccc(F)c4)c3)cc2)c1 [Compound 12a] has Percentage of hemolysis (±SDEV) of 2.5

Per the record, Fc1cccc(N/N=C/c2ccc(-c3ccc(/C=N/Nc4cccc(F)c4)cc3)cc2)c1 [Compound 12b] has Percentage of hemolysis (±SDEV) of 3.2

Per the record, Fc1ccc(N/N=C/c2ccc(-c3ccc(/C=N/Nc4ccc(F)cc4)cc3)cc2)cc1 [Compound 17b] has Percentage of hemolysis (±SDEV) of 0.7
